- Test system: EBC-1
- ASSAY INFO: relative viability (nuclei count vs DMSO), 5 days (fraction); higher = more cells survive
- CONDITION CONTEXT: first compound 0.253 µM
QUANTITY MEASURED: relative viability
Format: numeric value only, no unit, no commentary.

These recorded examples may help you get a feel for the data.
COc1nc(C)cnc1NS(=O)(=O)c1cccnc1-c1ccc(-c2nnco2)cc1 [Zibotentan] + CC(C)C[C@H](NC(=O)[C@H](Cc1ccccc1)NC(=O)c1cnccn1)B(O)O [Bortezomib] (partner 0.002 µM)	0.566
O=c1cc(-c2cccc3c2Sc2ccccc2S3)oc(N2CCOCC2)c1 + COc1cc2c(Oc3ccc(NC(=O)C4(C(=O)Nc5ccc(F)cc5)CC4)cc3F)ccnc2cc1OCCCN1CCOCC1 [Foretinib] (partner 0.25 µM)	0.0935
O=c1cc(-c2cccc3c2Sc2ccccc2S3)oc(N2CCOCC2)c1 + CC(C)C[C@H](NC(=O)[C@H](Cc1ccccc1)NC(=O)c1cnccn1)B(O)O [Bortezomib] (partner 0.002 µM)	0.535

// moving on: another record for relative viability
input: Send back EBC-1 relative viability of O=c1cc(-c2cccc3c2Sc2ccccc2S3)oc(N2CCOCC2)c1 + CS(=O)(=O)CCNCc1ccc(-c2ccc3ncnc(Nc4ccc(OCc5cccc(F)c5)c(Cl)c4)c3c2)o1 [Lapatinib] (partner 2 µM) only.
output: 0.191

* * *

Each entry below carries its recorded relative viability.
- Tested on: NCI-H441
- ASSAY INFO: relative viability (nuclei count vs DMSO), 5 days (fraction); higher = more cells survive
- CONDITION CONTEXT: first compound 0.08 µM
Format: numeric value only, no unit, no commentary.

O=c1cc(-c2cccc3c2Sc2ccccc2S3)oc(N2CCOCC2)c1 + COc1cccc2cc(-c3nc([C@H]4CC[C@H](C(=O)O)CC4)n4ncnc(N)c34)[nH]c12 [OSI-027] (partner 0.5 µM)	0.5
O=c1cc(-c2cccc3c2Sc2ccccc2S3)oc(N2CCOCC2)c1 + COc1cc2c(Oc3ccc(NC(=O)C4(C(=O)Nc5ccc(F)cc5)CC4)cc3F)ccnc2cc1OCCCN1CCOCC1 [Foretinib] (partner 0.25 µM)	0.512

// moving on: another record for relative viability
input: Write down relative viability measured for item O=c1cc(-c2cccc3c2Sc2ccccc2S3)oc(N2CCOCC2)c1 + CC(=O)c1c(C)c2cnc(Nc3ccc(N4CCNCC4)cn3)nc2n(C2CCCC2)c1=O [Palbociclib] (partner 0.5 µM)
output: 0.189

* * *

- Tested on: NCI-H2126
- ASSAY INFO: relative viability (nuclei count vs DMSO), 5 days (fraction); higher = more cells survive
- CONDITION CONTEXT: first compound 0.253 µM
Consider the cut-off 0.9. If the recorded relative viability is strictly smaller, the label is met; if not, the label is not met.

COc1nc(C)cnc1NS(=O)(=O)c1cccnc1-c1ccc(-c2nnco2)cc1 [Zibotentan] + CC(C)C[C@H](NC(=O)[C@H](Cc1ccccc1)NC(=O)c1cnccn1)B(O)O [Bortezomib] (partner 0.002 µM)	not met
O=c1cc(-c2cccc3c2Sc2ccccc2S3)oc(N2CCOCC2)c1 + CCNC(=O)c1noc(-c2cc(C(C)C)c(O)cc2O)c1-c1ccc(CN2CCOCC2)cc1 [Luminespib] (partner 0.01 µM)	not met
COc1nc(C)cnc1NS(=O)(=O)c1cccnc1-c1ccc(-c2nnco2)cc1 [Zibotentan] + CC1(C)CCC(c2ccc(Cl)cc2)=C(CN2CCN(c3ccc(C(=O)NS(=O)(=O)c4ccc(N[C@H](CCN5CCOCC5)CSc5ccccc5)c(S(=O)(=O)C(F)(F)F)c4)cc3)CC2)C1 [Navitoclax] (partner 0.5 µM)	met
O=c1cc(-c2cccc3c2Sc2ccccc2S3)oc(N2CCOCC2)c1 + O=C(CCCCCCC(=O)Nc1ccccc1)NO [Vorinostat] (partner 1 µM)	met

Could you now look at the following molecule, please?
input: Item COc1nc(C)cnc1NS(=O)(=O)c1cccnc1-c1ccc(-c2nnco2)cc1 [Zibotentan] + O=C(c1cc(Cc2n[nH]c(=O)c3ccccc23)ccc1F)N1CCN(C(=O)C2CC2)CC1 [Olaparib] (partner 8 µM) : relative viability beneath 0.9, strictly?
output: not met

* * *

Each entry below carries its recorded relative viability.
- System: IA-LM
- ASSAY INFO: relative viability (nuclei count vs DMSO), 5 days (fraction); higher = more cells survive
- CONDITION CONTEXT: first compound 2.53 µM
Format: numeric value only, no unit, no commentary.

These recorded examples may help you get a feel for the data.
COc1nc(C)cnc1NS(=O)(=O)c1cccnc1-c1ccc(-c2nnco2)cc1 [Zibotentan] + CC1(C)CCC(c2ccc(Cl)cc2)=C(CN2CCN(c3ccc(C(=O)NS(=O)(=O)c4ccc(N[C@H](CCN5CCOCC5)CSc5ccccc5)c(S(=O)(=O)C(F)(F)F)c4)cc3)CC2)C1 [Navitoclax] (partner 0.5 µM)	0.699
O=c1cc(-c2cccc3c2Sc2ccccc2S3)oc(N2CCOCC2)c1 + Cc1nc(NC(=O)N2CCC[C@H]2C(N)=O)sc1-c1ccnc(C(C)(C)C(F)(F)F)c1 [Alpelisib] (partner 2 µM)	0.862

input: Write down relative viability measured for item COc1nc(C)cnc1NS(=O)(=O)c1cccnc1-c1ccc(-c2nnco2)cc1 [Zibotentan] + CS(=O)(=O)CCNCc1ccc(-c2ccc3ncnc(Nc4ccc(OCc5cccc(F)c5)c(Cl)c4)c3c2)o1 [Lapatinib] (partner 2 µM)
output: 0.847

input: Write down relative viability measured for item O=c1cc(-c2cccc3c2Sc2ccccc2S3)oc(N2CCOCC2)c1 + O=C(CCCCCCC(=O)Nc1ccccc1)NO [Vorinostat] (partner 1 µM)
output: 0.863

* * *

- Tested on: RERF-LC-KJ
- ASSAY INFO: relative viability (nuclei count vs DMSO), 5 days (fraction); higher = more cells survive
- CONDITION CONTEXT: first compound 0.8 µM
QUANTITY MEASURED: relative viability
Format: numeric value only, no unit, no commentary.

These recorded examples may help you get a feel for the data.
COc1nc(C)cnc1NS(=O)(=O)c1cccnc1-c1ccc(-c2nnco2)cc1 [Zibotentan] + O=C(c1cc(Cc2n[nH]c(=O)c3ccccc23)ccc1F)N1CCN(C(=O)C2CC2)CC1 [Olaparib] (partner 8 µM)	0.921
COc1nc(C)cnc1NS(=O)(=O)c1cccnc1-c1ccc(-c2nnco2)cc1 [Zibotentan] + N=C(N)NC(=N)NCCc1ccccc1 [Phenformin] (partner 250 µM)	0.418
COc1nc(C)cnc1NS(=O)(=O)c1cccnc1-c1ccc(-c2nnco2)cc1 [Zibotentan] + Cc1cc(Nc2cc(N3CCN(C)CC3)nc(Sc3ccc(NC(=O)C4CC4)cc3)n2)n[nH]1 [Tozasertib] (partner 0.1 µM)	0.562
COc1nc(C)cnc1NS(=O)(=O)c1cccnc1-c1ccc(-c2nnco2)cc1 [Zibotentan] + Cc1nc(NC(=O)N2CCC[C@H]2C(N)=O)sc1-c1ccnc(C(C)(C)C(F)(F)F)c1 [Alpelisib] (partner 2 µM)	0.826

input: Write down relative viability measured for item O=c1cc(-c2cccc3c2Sc2ccccc2S3)oc(N2CCOCC2)c1 + CC(=O)Nc1cccc(-n2c(=O)n(C3CC3)c(=O)c3c(Nc4ccc(I)cc4F)n(C)c(=O)c(C)c32)c1 [Trametinib] (partner 0.02 µM)
output: 0.89

input: Write down relative viability measured for item COc1nc(C)cnc1NS(=O)(=O)c1cccnc1-c1ccc(-c2nnco2)cc1 [Zibotentan] + CC1(C)CCC(c2ccc(Cl)cc2)=C(CN2CCN(c3ccc(C(=O)NS(=O)(=O)c4ccc(N[C@H](CCN5CCOCC5)CSc5ccccc5)c(S(=O)(=O)C(F)(F)F)c4)cc3)CC2)C1 [Navitoclax] (partner 0.5 µM)
output: 0.887

input: Write down relative viability measured for item O=c1cc(-c2cccc3c2Sc2ccccc2S3)oc(N2CCOCC2)c1 + NC(=O)Nc1cc(-c2cccc(F)c2)sc1C(=O)N[C@H]1CCCNC1 [AZD7762] (partner 0.2 µM)
output: 0.846

input: Write down relative viability measured for item COc1nc(C)cnc1NS(=O)(=O)c1cccnc1-c1ccc(-c2nnco2)cc1 [Zibotentan] + CC(=O)c1c(C)c2cnc(Nc3ccc(N4CCNCC4)cn3)nc2n(C2CCCC2)c1=O [Palbociclib] (partner 0.5 µM)
output: 1.08

input: Write down relative viability measured for item O=c1cc(-c2cccc3c2Sc2ccccc2S3)oc(N2CCOCC2)c1 + CC(C)C[C@H](NC(=O)[C@H](Cc1ccccc1)NC(=O)c1cnccn1)B(O)O [Bortezomib] (partner 0.002 µM)
output: 1.22

* * *

- Tested on: ABC-1
- ASSAY INFO: relative viability (nuclei count vs DMSO), 5 days (fraction); higher = more cells survive
- CONDITION CONTEXT: first compound 0.01 µM
Each entry below carries its recorded relative viability.
Format: numeric value only, no unit, no commentary.

These recorded examples may help you get a feel for the data.
CCN(CC)CCCCNc1ncc2cc(-c3cc(OC)cc(OC)c3)c(NC(=O)NC(C)(C)C)nc2n1 + CS(=O)(=O)CCNCc1ccc(-c2ccc3ncnc(Nc4ccc(OCc5cccc(F)c5)c(Cl)c4)c3c2)o1 [Lapatinib] (partner 2 µM)	1.33
O=c1cc(N2CCOCC2)oc2c(-c3cccc4c3sc3ccccc34)cccc12 + O=C(CCCCCCC(=O)Nc1ccccc1)NO [Vorinostat] (partner 1 µM)	1.36

input: Write down relative viability measured for item O=c1cc(N2CCOCC2)oc2c(-c3cccc4c3sc3ccccc34)cccc12 + C[C@]1(O)C[C@@H](c2nc(-c3ccc4ccc(-c5ccccc5)nc4c3)c3c(N)nccn32)C1 [Linsitinib] (partner 1 µM)
output: 0.89
